# Experimental Details: Saturated solubility of BA in solvents, 25° C., absorbance at 320 nm
# Type: physicochemical
# Run Conditions: solvent (liquid filled capsule vehicle), 25 °C, oil or lipid, thermodynamic from solid, 100% Labrafil, 25° C.; read-out: BA Solubility
Measurement Label: solubility (mg/mL)
Kindly answer with a numeric value in mg/mL, unit omitted.

Prompt: Name the recorded solubility for NC(=O)c1ccc(I)c([N+](=O)[O-])c1 [BA, 4-iodo-3-nitrobenzamide] .
Completion: 18

====

# Experimental Details: Equilibrium solubility of 4-iodo-3-nitrobenzamide, overnight at 25° C., measured by HPLC
# Format: physicochemical
# Run Conditions: 10% Polysorbate 80 in purified water, 25 °C, aqueous with cosolvent or surfactant or cyclodextrin, thermodynamic from solid, Polysorbate 80 10%, 25° C.; read-out: Solubility
Measurement Label: solubility
Output should be the measured figure followed by the unit it is expressed in.

Prompt: Name the recorded solubility for NC(=O)c1ccc(I)c([N+](=O)[O-])c1 [BA, 4-iodo-3-nitrobenzamide] .
Completion: 3120 µg/mL
